Below, each of the compounds is paired with its reported CC50 at 48 h value.
Experiment: Cytotoxicity against MDCK cells after 48 hrs by Reed and Muench analysis
Assay type: cell-based, Canis lupus familiaris
Conditions: dog, read-out: TC50
Please give a number only; it is taken to be in µg/mL.

Some compounds with known CC50 at 48 h results, for comparison:
Documented CC50 at 48 h of C=C(C(=O)OC)[C@@H]1CC[C@H](C)[C@H]2C(=C(C)C(=O)[C@@H]2C(O)c2cccs2)C1 (single isomer, unassigned) : 8.9

Lab note: measured CC50 at 48 h of "C=C(C(=O)OC)[C@@H]1CC[C@H](C)[C@H]2C(=C(C)C(=O)[C@@H]2[C@H](O)/C=C(\C)CCC=C(C)C)C1" was 3.56

Kindly note the recorded CC50 at 48 h for C=C(C(=O)OC)[C@@H]1CC[C@H](C)[C@H]2C(=C(C)C(=O)[C@@H]2C(O)c2ccc(OC)cc2)C1 (single isomer, unassigned) , which is 80.1

Continuing:
// CC50 at 48 h value for C=C(C(=O)O)[C@@H]1CC[C@H](C)[C@@H]2CC(=O)C(C)=C2C1 [PECHUELOIC ACID] : 240
